# Tested on: Mus musculus
# test: Tested for antiTrypanosomal activity against Trypanosoma rhodesiense in mice at dose of 20 mg/kg expressed as mean survival time (MST) or cures
# Assay type: functional
parameter: Cures
Number, no unit, nothing else.

Query: I would be grateful if you could share the reported Cures for "Cl.Cl.N=C(N)c1ccc(-c2cnc(-c3ccc(C(=N)N)cc3)o2)cc1" .
Result: 5

Query: Which Cures reading was recorded for the molecule N=C(N)c1ccc(/C=C/c2ccc(C(=N)N)cc2O)cc1 [HYDROXYSTILBAMIDINE] ?
Result: 5

Query: Need Cures, item "Cl.Cl.c1cc(-c2ccc(-c3ccc(C4=NCCCN4)cc3)nn2)ccc1C1=NCCCN1"
Result: 4

Query: What value of Cures has been reported for the following molecule? "N=C(N)c1ccc(/C=C/c2ccc(C(=N)N)cc2)cc1"
Result: 5

Query: Consider the molecule "N=C(Nc1ccc(NC(=N)c2ccccc2)o1)c1ccccc1" and give its measured Cures.
Result: 5

Query: Any idea what Cures was measured for "Cl.Cl.c1cc(-c2cnc(-c3ccc(C4=NCCCN4)cc3)o2)ccc1C1=NCCCN1" ?
Result: 5

Query: What measured Cures goes with "N=C(N)c1ccc(OCCCCCOc2ccc(C(=N)N)cc2)cc1" ?
Result: 5
